test system: NCI-H522 lung; assay: NCI tumour cell line growth inhibition, 48 h
TGI: recorded values
MEASURED METRIC: TGI (µM)

COMPOUND: CNN1C(=O)c2c(N)c(C#N)c(-c3ccccc3)c(-c3ccccc3)c2C1=O
PREFIX OPERATOR: >
REPORTED MEASUREMENT: 100

COMPOUND: COc1cc(-c2cc(/C=C/C(=O)c3ccc(N)cc3)[nH]n2)cc(OC)c1OC
PREFIX OPERATOR: =
REPORTED MEASUREMENT: 3.99

COMPOUND: Nc1ccc2nc3n(c(=O)c2c1)CCCCC3
PREFIX OPERATOR: >
REPORTED MEASUREMENT: 100

COMPOUND: CC1CC2=C(C1)C(C1(C)C(=O)CC3C(C1=O)C3(C)C)C(C)C2=O (stereo not drawn)
PREFIX OPERATOR: >
REPORTED MEASUREMENT: 100

COMPOUND: Cc1cnc(Cl)nc1C(C#N)c1nc2ccccc2s1 (stereo not drawn)
PREFIX OPERATOR: =
REPORTED MEASUREMENT: 16.4

COMPOUND: COc1ccc(N2C(=O)C3c4[nH]c5ccc(C)cc5c4C4CCC(c5ccccc5)CC4C3C2=O)cc1 (stereo not drawn)
PREFIX OPERATOR: >
REPORTED MEASUREMENT: 100

COMPOUND: C=CS(=O)(=O)c1c2cc(OC)ccc2nc2ccc(OC)cc12
PREFIX OPERATOR: =
REPORTED MEASUREMENT: 3.74

COMPOUND: Cn1c2c(c3ccc(-c4ccn[nH]4)cc3c1=O)C(=O)c1ccccc1-2
PREFIX OPERATOR: =
REPORTED MEASUREMENT: 23.8

COMPOUND: CC(C)OC(=O)c1ccc(CCc2cc(O)c(Br)cc2O)cc1
PREFIX OPERATOR: =
REPORTED MEASUREMENT: 23.8

COMPOUND: O=C1C(=C/C=C2/SC(c3ccccc3)(c3ccccc3)c3ccccc32)C(=O)c2ccccc21
PREFIX OPERATOR: >
REPORTED MEASUREMENT: 100

COMPOUND: CCCOP1(=O)C=CC(Cl)=C(C)C1 (stereo not drawn)
PREFIX OPERATOR: =
REPORTED MEASUREMENT: 31.6

COMPOUND: CC(NC(=O)C(Cc1ccc(OC(=O)c2ccccc2)cc1)NC(=O)OC(C)(C)C)C(=O)NCC(=O)NC(Cc1ccccc1)NC(=O)OCc1ccccc1 (stereo not drawn)
PREFIX OPERATOR: >
REPORTED MEASUREMENT: 100

COMPOUND: CNc1cc(OCc2ccccc2)c(OC)cc1C(=O)N1CCC[C@H]1CO
PREFIX OPERATOR: >
REPORTED MEASUREMENT: 100

###

tested on: K-562 leukemia; test: NCI tumour cell line growth inhibition, 48 h

MOLECULE: O=C(Nc1ccccc1)c1cc(S(=O)(=O)Nc2nc3ncccc3[nH]2)c(SSc2cc(Cl)c(C(=O)Nc3ccccc3)cc2S(=O)(=O)Nc2nc3ncccc3[nH]2)cc1Cl
TGI: > 100 µM
//
MOLECULE: CC1=c2c(oc3cc(O)c(Nc4c(C)cc(O)cc4O)c(C)c23)=CC(=O)C1=Nc1c(C)cc(O)cc1O
TGI: > 100 µM
//
MOLECULE: CC1CCN(CCC(=O)CC(c2ccccc2)c2c(O)c3ccccc3oc2=O)CC1 (stereo unspecified)
TGI: > 100 µM
//
MOLECULE: O=S(=O)(O)c1cc(N=Nc2c(O)ccc3ccccc23)c2c(S(=O)(=O)O)cccc2c1
TGI: > 100 µM
//
MOLECULE: CCOC(=O)c1nc2cc(C(F)(F)F)ccc2nc1Nc1ccc(OC)c(OC)c1
TGI: > 100 µM
//
MOLECULE: CC(NNC(=S)N1CCCCCC1)c1cccnn1 (stereo unspecified)
TGI: > 58.7 µM
//
MOLECULE: COc1cc(C2c3cc4c(cc3CC3COC(=O)N32)OCO4)cc(OC)c1OC (stereo unspecified)
TGI: > 100 µM
//
MOLECULE: O=C(c1ccc(Cl)c(Cl)c1)N(Cc1cccnc1)C(=S)N(Cc1cccnc1)C(=O)c1ccc(Cl)c(Cl)c1
TGI: > 100 µM
//
MOLECULE: O=C1OC(c2cccc(C(F)(F)F)c2)c2ccc3ccccc3c21 (stereo unspecified)
TGI: > 100 µM
//
MOLECULE: Cn1c2c(c3ccc(-c4ccn[nH]4)cc3c1=O)C(=O)c1ccccc1-2
TGI: > 100 µM
//
MOLECULE: N#Cc1ccc(Oc2nc3ccccc3nc2C(=O)O)cc1
TGI: > 100 µM

###

Listing: TGI of selected molecules
test system: 786-0 renal; assay: NCI tumour cell line growth inhibition, 48 h
MEASURED METRIC: TGI

MOLECULE: Cc1ccc(S(=O)(=O)NC2=NCCN2C(=S)SN2CCn3c2nsc3=S)cc1
REPORTED MEASUREMENT: 44.4 µM

MOLECULE: CCOC(=O)c1nc2ccccc2nc1Nc1ccc(Cl)c(Cl)c1
REPORTED MEASUREMENT: > 100 µM

MOLECULE: O=C(/C=C/c1c(O)ccc2ccccc12)c1ccccc1Cl
REPORTED MEASUREMENT: > 100 µM

MOLECULE: CC(C)=CCC/C(C)=C\CC/C(C)=C/CO
REPORTED MEASUREMENT: 31.1 µM

MOLECULE: CCN(CC)CCOc1nc2c3ccc(Cl)cc3nn2c2ccccc12
REPORTED MEASUREMENT: 3.67 µM

MOLECULE: CN(C)C=Nc1ccc2nonc2c1
REPORTED MEASUREMENT: > 100 µM

MOLECULE: N#C/C(=C/c1ccco1)C(=O)c1ccccc1
REPORTED MEASUREMENT: > 100 µM

MOLECULE: CCCc1cc2c(cc1O)CC[C@@H]1[C@@H]2CC[C@]2(C)[C@@H](O)CC[C@@H]12
REPORTED MEASUREMENT: 26.6 µM

MOLECULE: COc1ccc(NC(=S)N=Nc2c(O)[nH]c3ccccc23)cc1
REPORTED MEASUREMENT: > 55.9 µM

MOLECULE: C[C@H](O)CNc1cc(-c2[nH]c3cccnc3c2-c2ccc(F)cc2)ccn1
REPORTED MEASUREMENT: > 25 µM

MOLECULE: O=c1c(O)c(-c2ccccc2)n(O)c2ccc(Cl)cc12
REPORTED MEASUREMENT: > 100 µM

MOLECULE: COc1ccc(N2C(=O)C3c4[nH]c5ccc(C)cc5c4C4CCC(c5ccccc5)CC4C3C2=O)cc1 (centres undefined)
REPORTED MEASUREMENT: > 62.2 µM

MOLECULE: O=C(CCN1CCCCC1)Nc1ccc2sc3ccccc3c(=O)c2n1
REPORTED MEASUREMENT: 28.5 µM

MOLECULE: Cn1c2c(c3ccccc31)C1C(=O)N(c3ccccc3)C(=O)C1CC2 (centres undefined)
REPORTED MEASUREMENT: > 303 µM

MOLECULE: CCCCCCCCCCCCCCCCCCNc1ccn(C2OC(CO)C(OP(=O)(O)OCC(COP(=O)(O)OCC3OC(n4cc(F)c(NCCCCCCCCCCCCCCCCCC)nc4=O)CC3O)OC(=O)CCCCCCCCCCCCCCC)C2O)c(=O)n1 (centres undefined)
REPORTED MEASUREMENT: > 100 µM

MOLECULE: COP1(=O)OCc2cnccc2O1 (centres undefined)
REPORTED MEASUREMENT: > 100 µM

MOLECULE: CC1=NN(c2cccc(Cl)c2)C2(SCC(=O)N2c2nc3ccccc3s2)/C1=C\c1ccccc1 (centres undefined)
REPORTED MEASUREMENT: 31 µM

MOLECULE: O=C(CN1CCN(c2ccccc2)CC1)c1ccc2[nH]c(=O)oc2c1
REPORTED MEASUREMENT: > 100 µM

MOLECULE: COc1ccc(N2C(=O)CC(=O)N(C(=O)CCCCCCCCC(=O)N3C(=O)CC(=O)N(c4ccc(OC)cc4)C3=S)C2=S)cc1
REPORTED MEASUREMENT: > 100 µM

MOLECULE: CN(C)C(=O)Nc1c([N+](=O)[O-])cc(C(F)(F)F)cc1[N+](=O)[O-]
REPORTED MEASUREMENT: > 100 µM

MOLECULE: O=c1[nH]c2ccc(C(F)(F)F)cc2nc1Cc1ccccc1
REPORTED MEASUREMENT: > 100 µM

MOLECULE: CNc1cc(OCc2ccccc2)c(OC)cc1C(=O)N1CCC[C@H]1CO
REPORTED MEASUREMENT: > 100 µM

MOLECULE: CCN(CC)CCNc1ccc2ncn3c4ccccc4c(=O)c1c23
REPORTED MEASUREMENT: 15.4 µM

MOLECULE: C[N+](C)(C)CC(=O)N/N=C(/Cc1nc2ccc(Cl)cc2[nH]c1=O)C1=NS(=O)(=O)c2cc(S(N)(=O)=O)c(Cl)cc2N1
REPORTED MEASUREMENT: > 100 µM
